I'd appreciate it if you could supply self-cleavage values for the items below.
B1: LINE1-mini (parent)
chain: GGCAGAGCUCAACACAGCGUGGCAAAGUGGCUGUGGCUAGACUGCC

Variants of: B1
protocol-text: self-cleavage, relative activity (ratio to wild type); higher = more cleavage; in vitro, sequencing; the parent is a self-cleaving ribozyme
// keep it numeric: no unit symbol after the value

Prompt line: // query self-cleavage value for entry GCCAGAGCUCAACACAGCGUGCCAAAGUGGCUGUGGCUAGACUGCC [G2C G22C]
Response line: 0.05

Prompt line: What about GGCACAGCUCAACACAGCGUGGCAAAGUGGCUGUGGCUAAACUGCC [G5C G40A] ?
Response line: 0.1

Prompt line: Please give the result for AGCAGAGCUCAACACAGCGUGGCAAAGUGGCUGUGGCUAGACUGCA [G1A C46A] too.
Response line: 2.61

Prompt line: How about UGCAGAGCUCAACACCGCGUGGCAAAGUGGCUGUGGCUAGACUGCC [G1U A16C] ?
Response line: 0.08

Prompt line: Lookup GGCAGCGCUCAACGCAGCGUGGCAAAGUGGCUGUGGCUAGACUGCC [A6C A14G]
Response line: 0.16

Prompt line: Also check GGCAGAGCACAACACAGCGUGGCAAGGUGGCUGUGGCUAGACUGCC [U9A A26G]
Response line: 0.09

Prompt line: Another variant to look at: GGCAGAGCUCUACACAUCGUGGCAAAGUGGCUGUGGCUAGACUGCC [A11U G17U]
Response line: 0.03

Prompt line: Try the variant GGCAGUGCUCAACACAGCGUCGCAAAGUGGCUGUGGCUAGACUGCC [A6U G21C]
Response line: 0.52

Prompt line: Continue with GGCAGAGGUCAACAGAGCGUGGCAAAGUGGCUGUGGCUAGACUGCC [C8G C15G]
Response line: 0.05

Prompt line: And what about the variant GGCAGAGCGCAACACAGCGUGGCAACGUGGCUGUGGCUAGACUGCC [U9G A26C] ?
Response line: 0.21

Prompt line: Another: AGCAGAGCUCAACACAGCGUGGCAGAGUGGCUGUGGCUAGACUGCC [G1A A25G]
Response line: 0.39

Prompt line: Next variant up: GGAAGAGCUCAACACAGCGUGGAAAAGUGGCUGUGGCUAGACUGCC [C3A C23A]
Response line: 0.61

Prompt line: Ok, now GGCAGAGCUCAACACAGCGUGCCAAAGUGGCUGUGGCUAGCCUGCC [G22C A41C]
Response line: 0.05

Prompt line: Try this variant too: GGCAGAGCUCAACACAGCGUGGCAAAGUGGAUGUGCCUAGACUGCC [C31A G36C]
Response line: 0.13

Prompt line: Param item: GGCAGAGGUCAACACAGCGUGGCAAAGUGGCUGUGGCUCGACUGCC [C8G A39C]
Response line: 0.17

Prompt line: Lookup AGCAGAGCUCAACACAGCGUGGCAAAGUGGCUGUGGCCAGACUGCC [G1A U38C]
Response line: 0.84

Prompt line: Another variant to check: GGCAGAGCUCAACACAGCGGGGCAAAGUGGCUGUGGCUACACUGCC [U20G G40C]
Response line: 0.04

Prompt line: Same question, GGCAGAGCUCAACACAGCGUAGCGAAGUGGCUGUGGCUAGACUGCC [G21A A24G] this time
Response line: 2.26

Prompt line: Input GGCAGAGCGCAACACAGCGUGGCAAAGUGGCUGUAGCUAGACUGCC [U9G G35A]
Response line: 0.11

Prompt line: Try this variant too: GGCAUAACUCAACACAGCGUGGCAAAGUGGCUGUGGCUAGACUGCC [G5U G7A]
Response line: 0.43

Prompt line: Next up: GGCAGAGCUCAACACUGCGUGGCAAAGAGGCUGUGGCUAGACUGCC [A16U U28A]
Response line: 0.26

Prompt line: // repeat for GACAGAGCUCAACAAAGCGUGGCAAAGUGGCUGUGGCUAGACUGCC [G2A C15A] and report
Response line: 0.31

Prompt line: Similarly, GUCAGAGCUCAACACAGCGUGGCAAAGUGGCUGUGGCUAGACUCCC [G2U G44C] ?
Response line: 0.09

Prompt line: Check GGCAGAGCUCAACACGGCGUGGCAAAGUGGCUGUGGCUAGACUGCU [A16G C46U] too.
Response line: 0.55

Prompt line: Can you check GGCAGAGCUCAACACAGGGUGGCAAAGUGGCUGUGGCUACACUGCC [C18G G40C] next?
Response line: 0.05

Prompt line: Also UGCAGAGCUCAACACAGCGUGGCAAAGUGGCUGUGUCUAGACUGCC [G1U G36U] ?
Response line: 0.11

Prompt line: Entry to check: GGCAGAGCUCAACACAGCGUGGCAAAGUGGCCGUGGCUAGACUGAC [U32C C45A]
Response line: 0.2

Prompt line: Repeat for the following variant: GGCAGAGCUCAACACAGCGUGGCAAAGUAGCUGUGGCUAGAAUGCC [G29A C42A]
Response line: 0.16

Prompt line: # repeat for GGCAGAGCUAAACACAGCGUGGCAAAGUGGCUUUGGCUAGACUGCC [C10A G33U]
Response line: 0.05

Prompt line: // same read-out, input: GGCAGAGCUCACCACAGCGUGGCAUAGUGGCUGUGGCUAGACUGCC [A12C A25U]
Response line: 0.01

Prompt line: Again, but for GGCAGAGCUCAACAUAGCGUGGCAAAGGGGCUGUGGCUAGACUGCC [C15U U28G]
Response line: 0.31

Prompt line: Same read-out for GGCAGAGCUCAACAUAGCGUGGCAAAGUGGCUGUGUCUAGACUGCC [C15U G36U] ?
Response line: 0.12

Prompt line: Item: GGCAGAGCGCAACACAGCGUGGCAAAGAGGCUGUGGCUAGACUGCC [U9G U28A]
Response line: 0.11
